Molecular target: canine IL-4RA (construct not given) (canine)
Experiment: SPR, IL-4RA immobilised, periplasmic Fab
Experimental Readout: RU max (RU)
Form entry: value (RU) — number only.

The cases that follow already have their RU max on record.
FJ2246MP10H11 (Fab, V domains shown) VH: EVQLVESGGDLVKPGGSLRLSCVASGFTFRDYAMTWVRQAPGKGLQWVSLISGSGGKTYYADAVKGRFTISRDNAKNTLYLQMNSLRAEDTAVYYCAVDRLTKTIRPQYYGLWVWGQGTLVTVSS VL: DIVMTQTPLSLSVSPGETASISCRSSQSLLYSIGYNYLDWYLQKPGQSPQGLIYLGSKRASGVPDRFSGSGSGTDFTLRISRVEANDTGVYYCMQGLHSPLSFGQGTKLEIK ... 261
FJ2246MP06G08 (Fab, V domains shown) VH: EVQLVESGGDLVKPGGSLRLSCVASGFTFRDYAMTWVRQAPGKGLQWVSLINGNGSKTYYADAVKGRFTISRDNAKNTLYLQMNSLRAEDTAVYYCAVDRLTKTIRPQYYGLWVWGQGTLVTVSS VL: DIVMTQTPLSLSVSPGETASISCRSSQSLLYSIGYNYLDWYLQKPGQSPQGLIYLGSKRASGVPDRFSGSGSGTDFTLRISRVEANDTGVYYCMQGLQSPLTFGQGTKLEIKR ... 199
FJ2246MP10F04 (Fab, V domains shown) VH: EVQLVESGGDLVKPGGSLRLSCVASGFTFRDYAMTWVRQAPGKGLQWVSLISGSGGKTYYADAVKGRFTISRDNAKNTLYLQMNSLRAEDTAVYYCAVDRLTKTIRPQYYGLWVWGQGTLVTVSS VL: DIVMTQTPLSLSVSPGETASISCRSSKSLLYSIGYNYLDWYLQKPGQSPQGLIYLGSKRASGVPDRFSGSGSGTDFTLRISRVEADDTGVYYCMQGLHSPLTFGQGTKLEIK ... 292

Report RU max for FJ2246MP10E12 (Fab, V domains shown) VH: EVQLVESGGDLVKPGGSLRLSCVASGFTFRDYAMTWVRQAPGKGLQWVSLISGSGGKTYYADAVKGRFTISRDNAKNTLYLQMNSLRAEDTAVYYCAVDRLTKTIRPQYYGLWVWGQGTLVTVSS VL: DIVMTQTPLSLSVSPGETASISCRSSQSLLYSIGYNYLDWYLQKPGQSPQGLIYLGSKRASGVPDRFSGSGSGTDFTLRISRVEAEDTGVYYCMQGLQSPLSFGQGTKLEIK please.
251

// repeat for FJ2246MP07E01 (Fab, V domains shown) VH: EVQLVESGGDLVKPGGSLRLSCVASGFTFRDYAMTWVRQAPGKGLQWVSLISGSGGKTYYADAVKGRFTISRDNAKNTLYLQMNSLRAEDTAVYYCAVDRLTKTIRPQYYGLWSWGQGTLVTVSS VL: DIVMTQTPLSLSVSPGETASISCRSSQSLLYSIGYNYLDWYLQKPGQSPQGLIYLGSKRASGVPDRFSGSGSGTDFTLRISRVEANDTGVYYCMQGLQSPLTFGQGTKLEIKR and report
423

Again, but for FJ2246MP10H03 (Fab, V domains shown) VH: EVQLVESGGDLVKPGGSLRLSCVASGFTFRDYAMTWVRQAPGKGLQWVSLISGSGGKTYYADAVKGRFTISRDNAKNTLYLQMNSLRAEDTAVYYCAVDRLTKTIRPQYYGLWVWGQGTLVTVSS VL: DIVMTQTPLSLSVSPGETASISCRSSQSLLYSIGYNYLDWYLQKPGQSPQGLIYLGSKRASGVPDRFSGSGSGTDFTLRISRVEAEDTGVYYCMQGLRSPLSFGQGTKLEIK
243

Note, next up: FJ2246MP06A09 (Fab, V domains shown) VH: EVQLVESGGDLVKPGGSLRLSCVASGFTFRDYAMTWVRQAPGKGLQWVSLINGNGSKTYYADAVKGRFTISRDNAKNTLYLQMNSLRAEDTAVYYCAVDRLTKTIRPQYYGLWVWGQGTLVTVSS VL: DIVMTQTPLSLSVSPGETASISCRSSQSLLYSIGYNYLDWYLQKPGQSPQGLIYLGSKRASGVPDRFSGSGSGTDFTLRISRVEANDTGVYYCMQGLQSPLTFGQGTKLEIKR
152

And then FJ2246MP06H01 (Fab, V domains shown) VH: EVQLVESGGDLVKPGGSLRLSCVASGFTFRDYAMTWVRQAPGKGLQWVSLINGDASKTYYADAVKGRFTISRDNAKNTLYLQMNSLRAEDTAVYYCAVDRLTKTIRPQYYGLWVWGQGTLVTVSS VL: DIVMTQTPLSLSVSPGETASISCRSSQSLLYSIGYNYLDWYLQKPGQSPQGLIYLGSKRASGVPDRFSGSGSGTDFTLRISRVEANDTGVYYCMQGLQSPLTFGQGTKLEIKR , what is it?
225

Also check FJ2246MP06H07 (Fab, V domains shown) VH: EVQLVESGGDLVKPGGSLRLSCVASGFTFRDYAMTWVRQAPGKGLQWVSLINGTGGKTYYADAVKGRFTISRDNAKNTLYLQMNSLRAEDTAVYYCAVDRLTKTIRPQYYGLWAWGQGTLVTVSS VL: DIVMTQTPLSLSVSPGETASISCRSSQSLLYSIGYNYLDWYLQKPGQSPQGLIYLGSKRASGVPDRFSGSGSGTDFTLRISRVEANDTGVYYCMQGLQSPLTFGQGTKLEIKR
568
